- MEASURED TARGET: Cytochrome P450 2D6 (Homo sapiens, UniProt P10635)
- Sequence (P10635 whole entry): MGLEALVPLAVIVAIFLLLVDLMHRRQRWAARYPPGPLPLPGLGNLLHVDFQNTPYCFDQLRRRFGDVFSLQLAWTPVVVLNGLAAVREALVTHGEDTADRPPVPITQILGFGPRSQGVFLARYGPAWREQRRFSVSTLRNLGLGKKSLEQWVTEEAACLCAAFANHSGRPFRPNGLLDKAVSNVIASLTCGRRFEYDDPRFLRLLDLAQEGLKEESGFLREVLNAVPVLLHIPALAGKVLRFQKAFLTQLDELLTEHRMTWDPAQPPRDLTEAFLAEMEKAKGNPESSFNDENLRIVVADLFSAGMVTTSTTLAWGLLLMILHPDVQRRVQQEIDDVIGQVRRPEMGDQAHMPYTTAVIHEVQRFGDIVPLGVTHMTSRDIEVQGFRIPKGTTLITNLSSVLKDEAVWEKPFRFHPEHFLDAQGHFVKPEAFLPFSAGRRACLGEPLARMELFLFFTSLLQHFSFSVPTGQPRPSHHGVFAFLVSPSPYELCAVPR
PROPERTY NAME: IC50

Lab note: need IC50 with Cytochrome P450 2D6 (Homo sapiens, UniProt P10635) for entry Cc1ccccc1-n1nc(-c2c(-c3ccc(F)cc3)nn3c2NC[C@@H](CO)C3)ccc1=O , please look it up.
> 50 µM

----------
- MEASURED TARGET: Voltage-gated inwardly rectifying potassium channel KCNH2 (Homo sapiens, UniProt Q12809)
- Sequence (Q12809 whole entry): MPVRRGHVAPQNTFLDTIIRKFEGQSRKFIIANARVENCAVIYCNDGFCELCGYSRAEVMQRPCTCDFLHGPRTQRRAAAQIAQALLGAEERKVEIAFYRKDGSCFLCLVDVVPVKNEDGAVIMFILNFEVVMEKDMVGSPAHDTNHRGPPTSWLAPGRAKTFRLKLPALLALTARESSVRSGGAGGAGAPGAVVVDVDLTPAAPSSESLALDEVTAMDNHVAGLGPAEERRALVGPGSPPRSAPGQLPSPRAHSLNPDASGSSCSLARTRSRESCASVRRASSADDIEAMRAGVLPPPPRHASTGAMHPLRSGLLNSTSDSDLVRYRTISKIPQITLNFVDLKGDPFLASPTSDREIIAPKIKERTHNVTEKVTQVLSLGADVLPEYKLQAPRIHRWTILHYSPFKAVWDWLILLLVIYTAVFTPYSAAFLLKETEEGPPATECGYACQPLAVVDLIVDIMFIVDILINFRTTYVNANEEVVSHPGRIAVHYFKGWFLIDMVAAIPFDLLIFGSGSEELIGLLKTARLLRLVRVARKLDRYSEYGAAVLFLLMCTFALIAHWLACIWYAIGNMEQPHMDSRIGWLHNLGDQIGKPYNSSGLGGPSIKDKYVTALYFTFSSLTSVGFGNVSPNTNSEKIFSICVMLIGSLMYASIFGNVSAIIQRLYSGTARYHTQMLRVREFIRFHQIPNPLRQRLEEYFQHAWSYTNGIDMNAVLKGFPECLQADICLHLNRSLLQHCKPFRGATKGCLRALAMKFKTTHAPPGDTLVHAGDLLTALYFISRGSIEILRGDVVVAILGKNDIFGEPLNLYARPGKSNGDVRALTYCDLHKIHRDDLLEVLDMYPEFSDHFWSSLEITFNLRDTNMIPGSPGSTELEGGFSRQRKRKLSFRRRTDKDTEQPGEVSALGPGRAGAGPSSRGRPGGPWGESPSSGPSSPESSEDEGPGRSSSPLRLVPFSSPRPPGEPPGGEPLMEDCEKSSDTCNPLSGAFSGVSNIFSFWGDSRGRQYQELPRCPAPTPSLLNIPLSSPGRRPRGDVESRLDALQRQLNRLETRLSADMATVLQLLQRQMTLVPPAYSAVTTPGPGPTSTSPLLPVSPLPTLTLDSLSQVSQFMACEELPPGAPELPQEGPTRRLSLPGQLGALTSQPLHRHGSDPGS
PROPERTY NAME: IC50

What is its IC50 for Voltage-gated inwardly rectifying potassium channel KCNH2 (Homo sapiens, UniProt Q12809)? Entry: Cc1ccccc1-n1nc(-c2c(-c3ccc(F)cc3)nn3c2NC[C@@H](CO)C3)ccc1=O [AS1940477]
> 100 µM

----------
- ASSAY METHOD TEXT: Solubility of the compound at pH 6.8
- Assay type: physicochemical
- CONDITION SUMMARY: buffer
PROPERTY NAME: solubility

// lookup solubility for Cc1ccccc1-n1nc(-c2c(-c3ccc(F)cc3)nn3c2NC[C@@H](CO)C3)ccc1=O [AS1940477]
42 µg/mL

----------
- System: Rattus norvegicus
- ASSAY METHOD TEXT: Antiinflammatory activity in rat assessed as inhibition of LPS-induced TNFalpha production at 1 mg/kg, po administered 4 hrs prior to LPS-challenge measured after 1 to 1.5 hrs by ELISA relative to vehicle-treated control
- Assay type: functional
PROPERTY NAME: inhibition in vivo at 1 mg/kg (%)
// units = %; emit number, no label

| COMPOUND | PROPERTY NAME | READOUT UNITS | REPORTED |
| --- | --- | --- | --- |
| Cc1ccccc1-n1nc(-c2c(-c3ccc(F)cc3)nn3c2NC[C@@H](O)C3)ccc1=O | inhibition in vivo at 1 mg/kg | % | 94 |
| CNc1c(-c2ccc(=O)n(-c3ccccc3C)n2)c(-c2ccc(F)cc2)nn1C | inhibition in vivo at 1 mg/kg | % | 86 |
| Cc1ccccc1-n1nc(-c2c(-c3ccc(F)cc3)nn3c2NC[C@H](CO)C3)ccc1=O | inhibition in vivo at 1 mg/kg | % | 92 |
| Cc1ccccc1-n1nc(-c2c(-c3ccc(F)cc3)nn3c2NC[C@H](O)C3)ccc1=O | inhibition in vivo at 1 mg/kg | % | 89 |

Please look up its inhibition in vivo at 1 mg/kg: Cc1ccccc1-n1nc(-c2c(-c3ccc(F)cc3)nn3cc(CO)cnc23)ccc1=O
11

I have this compound here, Cc1ccccc1-n1nc(-c2c(-c3ccc(F)cc3)nn3c2NCC(CN2CCN(C)CC2)C3)ccc1=O (stereo unspecified) , and I need its recorded inhibition in vivo at 1 mg/kg.
88

----------
- ASSAY METHOD TEXT: Half life in rat liver homogenate
- Type: ADME, tissue-based
PROPERTY NAME: half-life
Entry format: amount then unit.

So what's the measured half-life for this one? CNc1c(-c2ccc(=O)n(-c3ccccc3C)n2)c(-c2ccc(F)cc2)nn1C
39.6 min

----------
- MEASURED TARGET: Mitogen-activated protein kinase 11 (Homo sapiens, UniProt Q15759)
- Sequence (Q15759 whole entry): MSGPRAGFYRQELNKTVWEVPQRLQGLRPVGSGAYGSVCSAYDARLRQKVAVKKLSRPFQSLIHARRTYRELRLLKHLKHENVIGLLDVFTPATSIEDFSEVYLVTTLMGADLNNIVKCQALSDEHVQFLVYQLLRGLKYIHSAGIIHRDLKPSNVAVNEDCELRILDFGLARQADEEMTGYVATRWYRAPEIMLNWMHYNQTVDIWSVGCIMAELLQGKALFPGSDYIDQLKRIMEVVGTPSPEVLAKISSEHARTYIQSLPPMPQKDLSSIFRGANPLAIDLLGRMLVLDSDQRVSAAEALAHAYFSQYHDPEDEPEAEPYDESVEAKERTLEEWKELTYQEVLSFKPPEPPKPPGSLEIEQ
- ASSAY METHOD TEXT: Inhibition of human MAPK p38beta by Z'-LYTE assay
PROPERTY NAME: pIC50
pIC50 is defined as minus the log10 of a concentration measured in mol/L.

# input compound: Cc1ccccc1-n1nc(-c2c(-c3ccc(F)cc3)nn3c2NC[C@@H](CO)C3)ccc1=O ; wanted: its pIC50
7.44

----------
- Test system: Rattus norvegicus
- ASSAY METHOD TEXT: Antiinflammatory activity in rat assessed as inhibition of LPS-induced TNFalpha production at 1 mg/kg, po administered 4 hrs prior to LPS-challenge measured after 1 to 1.5 hrs by ELISA relative to vehicle-treated control
- Type: functional
PROPERTY NAME: inhibition in vivo at 1 mg/kg (%)
Write down the numeric answer in % and omit the unit.

GET /values?readout=inhibition in vivo at 1 mg/kg&item= Cc1ccccc1-n1nc(-c2c(-c3ccc(F)cc3)nn3c2N[C@H](CO)CC3)ccc1=O
98

Field request: inhibition in vivo at 1 mg/kg | item: Cc1ccccc1-n1nc(-c2c(-c3ccc(F)cc3)nn3c2N[C@@H](CO)CC3)ccc1=O
98

Bench note: what inhibition in vivo at 1 mg/kg did Cc1ccccc1-n1nc(-c2c(-c3ccc(F)cc3)nn3c2NCCC3)ccc1=O show?
93

Consider the compound Cc1ccccc1-n1nc(-c2c(-c3ccc(F)cc3)nn3c2OCCC3)ccc1=O and give its measured inhibition in vivo at 1 mg/kg.
33

What value of inhibition in vivo at 1 mg/kg has been recorded for this entry: Cc1ccccc1-n1nc(-c2c(-c3ccc(F)cc3)nn3c2NC[C@@H](CO)C3)ccc1=O
92

----------
- MEASURED TARGET: Mitogen-activated protein kinase 9 (Homo sapiens)
- Sequence (P45984 whole entry): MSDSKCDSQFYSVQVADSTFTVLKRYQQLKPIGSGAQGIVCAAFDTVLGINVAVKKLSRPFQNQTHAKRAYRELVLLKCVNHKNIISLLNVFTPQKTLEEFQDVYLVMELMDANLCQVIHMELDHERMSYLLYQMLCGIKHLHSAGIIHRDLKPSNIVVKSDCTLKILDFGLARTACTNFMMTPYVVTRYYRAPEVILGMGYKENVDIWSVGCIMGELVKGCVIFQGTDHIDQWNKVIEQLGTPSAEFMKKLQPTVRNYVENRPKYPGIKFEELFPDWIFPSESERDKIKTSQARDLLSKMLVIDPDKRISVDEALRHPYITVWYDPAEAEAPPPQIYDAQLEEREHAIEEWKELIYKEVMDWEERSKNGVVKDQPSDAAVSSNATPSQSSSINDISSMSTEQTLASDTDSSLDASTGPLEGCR
- ASSAY METHOD TEXT: Inhibition of human recombinant JNK2alpha2-mediated ATF-2 phosphorylation after 30 mins by immunoblotting method
pIC50: −log10 of the molar value.
PROPERTY NAME: pIC50

Find pIC50 (Mitogen-activated protein kinase 9 (Homo sapiens)) for the entry Cc1ccccc1-n1nc(-c2c(-c3ccc(F)cc3)nn3c2NC[C@@H](CO)C3)ccc1=O
< 5.00

----------
- ASSAY METHOD TEXT: Intrinsic clearance in rat liver microsomes in presence of NADPH
- Assay type: ADME, Microsome
- CONDITION SUMMARY: read-out: CLH
Readings of CLint scaled for the listed compounds
Just the number in mL/min/kg, nothing appended.

Sample records with CLint scaled:
| COMPOUND STRUCTURE STRING | CLint scaled / mL/min/kg |
| --- | --- |
| O=c1ccc(-c2c(-c3ccccc3)nn3ccccc23)nn1CC1(O)CCCCC1 | 195 |
| Cc1ccccc1-n1nc(-c2c(-c3ccc(F)cc3)nn3c2NCCC3)ccc1=O | 94 |

Item under review: CNc1c(-c2ccc(=O)n(-c3ccccc3C)n2)c(-c2ccc(F)cc2)nn1C . Reported CLint scaled?
213

----------
- ASSAY METHOD TEXT: Permeability of the compound by PAMPA assay at pH 6.5
- Format: ADME
- CONDITION SUMMARY: read-out: permeability
PROPERTY NAME: Papp (×10⁻⁶ cm/s)
Number only, in ×10⁻⁶ cm/s; omit the unit.

Here's what some known entries look like.
| COMPOUND | Papp, ×10⁻⁶ cm/s |
| --- | --- |
| Cc1ccccc1-n1nc(-c2c(-c3ccc(F)cc3)nn3c2NC[C@H](O)C3)ccc1=O | 17 |
| Cc1ccccc1-n1nc(-c2c(-c3ccc(F)cc3)nn3c2NC[C@@H](O)C3)ccc1=O | 16 |

For Cc1ccccc1-n1nc(-c2c(-c3ccc(F)cc3)nn3c2NCC(CN2CCN(C)CC2)C3)ccc1=O (centres undefined) , what is its reported Papp?
21

Consider the compound Cc1ccccc1-n1nc(-c2c(-c3ccc(F)cc3)nn3c2NC[C@@H](CO)C3)ccc1=O and give its measured Papp.
19.7

----------
- ASSAY METHOD TEXT: AUC in Sprague-Dawley rat at 1 mg/kg, po
- Assay type: ADME, organism-based, Plasma
- Parameters: dose 1 mg/kg, route oral
- CONDITION SUMMARY: Sprague-Dawley, plasma
PROPERTY NAME: AUC (ng·h/mL)
Use ng·h/mL as the unit, but write only the number.

| COMPOUND STRUCTURE STRING | PROPERTY NAME | REPORTED |
| --- | --- | --- |
| Cc1ccccc1-n1nc(-c2c(-c3ccc(F)cc3)nn3c2N[C@H](CO)CC3)ccc1=O | AUC | 4500 |

Shifting focus to the compound that follows.
Can you look up the measured AUC of CNc1c(-c2ccc(=O)n(-c3ccccc3C)n2)c(-c2ccc(F)cc2)nn1C for me?
235

----------
Let's look at some molecules and their measured Papp.
- ASSAY METHOD TEXT: Permeability of the compound by PAMPA assay at pH 6.5
- Assay type: ADME
- CONDITION SUMMARY: read-out: permeability
The response must be a number in nm/s with no trailing unit.

| COMPOUND STRUCTURE STRING | REPORTED |
| --- | --- |
| CNc1c(-c2ccc(=O)n(-c3ccccc3C)n2)c(-c2ccc(F)cc2)nn1C | 300 |
| Cc1ccccc1-n1nc(-c2c(-c3ccc(F)cc3)nn3c2N[C@@H](CO)CC3)ccc1=O | 230 |

I would be grateful if you could share the reported Papp for Cc1ccccc1-n1nc(-c2c(-c3ccc(F)cc3)nn3c2N[C@H](CO)CC3)ccc1=O .
220

Which Papp reading was recorded for the molecule Cc1ccccc1-n1nc(-c2c(-c3ccc(F)cc3)nn3c2NCCC3)ccc1=O ?
300

----------
half-life values for the molecules below.
- ASSAY METHOD TEXT: Half life in Sprague-Dawley rat at 1 mg/kg, iv
- Type: ADME, organism-based
- Design: dose 1 mg/kg, route intravenous
- CONDITION SUMMARY: in vivo
Answer in h, number only, no unit symbol.

Answered cases to consult:
| MOLECULE | half-life / h |
| --- | --- |
| Cc1ccccc1-n1nc(-c2c(-c3ccc(F)cc3)nn3c2NC[C@H](O)C3)ccc1=O | 9.01 |
| Cc1ccccc1-n1nc(-c2c(-c3ccc(F)cc3)nn3c2NC[C@H](CO)C3)ccc1=O | 3.82 |
| Cc1ccccc1-n1nc(-c2c(-c3ccc(F)cc3)nn3c2NC[C@@H](CO)C3)ccc1=O [AS1940477] | 5.15 |
| CNc1c(-c2ccc(=O)n(-c3ccccc3C)n2)c(-c2ccc(F)cc2)nn1C | 0.66 |
| Cc1ccccc1-n1nc(-c2c(-c3ccc(F)cc3)nn3c2N[C@H](CO)CC3)ccc1=O | 5.95 |

Now for a further molecule.
Could you share which half-life value was measured for Cc1ccccc1-n1nc(-c2c(-c3ccc(F)cc3)nn3c2NC[C@@H](O)C3)ccc1=O ?
3.89

Just for reference, ChEMBL document CHEMBL2169749 is where these values come from.
